Parameter IC50: see the listing below.
Target: HDAC6 (Homo sapiens, UniProt Q9UBN7)
Construct: Full length human recombinant HDAC6 protein
Sequence (Q9UBN7 whole entry): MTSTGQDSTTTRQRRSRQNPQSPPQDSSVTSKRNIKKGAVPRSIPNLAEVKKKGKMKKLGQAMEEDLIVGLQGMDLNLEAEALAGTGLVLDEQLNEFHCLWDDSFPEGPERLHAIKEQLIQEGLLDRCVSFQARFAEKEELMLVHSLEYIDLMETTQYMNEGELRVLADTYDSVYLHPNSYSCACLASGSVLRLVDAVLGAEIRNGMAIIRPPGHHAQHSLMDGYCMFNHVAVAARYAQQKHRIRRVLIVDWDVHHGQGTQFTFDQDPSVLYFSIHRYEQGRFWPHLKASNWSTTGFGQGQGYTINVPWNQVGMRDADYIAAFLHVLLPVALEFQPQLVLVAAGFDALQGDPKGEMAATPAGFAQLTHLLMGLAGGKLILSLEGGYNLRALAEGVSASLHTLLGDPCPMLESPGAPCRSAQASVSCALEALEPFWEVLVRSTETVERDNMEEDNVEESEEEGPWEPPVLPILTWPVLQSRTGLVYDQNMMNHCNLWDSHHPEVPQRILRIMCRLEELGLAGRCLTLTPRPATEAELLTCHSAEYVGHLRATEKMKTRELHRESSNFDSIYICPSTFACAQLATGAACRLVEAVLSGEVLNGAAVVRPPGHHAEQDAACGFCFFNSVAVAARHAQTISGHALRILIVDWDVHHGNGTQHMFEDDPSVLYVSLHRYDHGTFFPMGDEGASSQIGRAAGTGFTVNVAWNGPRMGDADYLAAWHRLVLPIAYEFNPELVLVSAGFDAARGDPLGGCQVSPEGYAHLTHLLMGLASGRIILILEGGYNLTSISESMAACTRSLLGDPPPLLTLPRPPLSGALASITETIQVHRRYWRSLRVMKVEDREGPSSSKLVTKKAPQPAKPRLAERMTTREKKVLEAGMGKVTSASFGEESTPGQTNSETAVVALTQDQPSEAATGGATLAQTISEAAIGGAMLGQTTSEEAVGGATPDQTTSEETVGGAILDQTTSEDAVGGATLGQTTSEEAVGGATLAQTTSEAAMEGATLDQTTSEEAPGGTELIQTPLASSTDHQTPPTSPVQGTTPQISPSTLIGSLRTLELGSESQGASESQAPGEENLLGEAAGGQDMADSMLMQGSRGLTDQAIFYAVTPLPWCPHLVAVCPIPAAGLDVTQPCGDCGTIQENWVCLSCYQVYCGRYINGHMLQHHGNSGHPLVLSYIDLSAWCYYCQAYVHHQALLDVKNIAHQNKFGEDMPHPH
Assay: In vitro histone deacetylase assay: enzymatic HDAC6 assay by electrophoretic mobility shift
Settings: full length human recombinant HDAC6 1 nM, 2 μM peptide substrate RHKK(Ac)-NH2, 25° C., 12 concentrations; read-out: Inhibitory Concentration (IC50) against HDAC6, Activity Range

Examples from the recorded data:
{"columns": ["compound", "IC50"],
 "data": [
  ["O=C(NO)c1ccc2c(c1)OC[C@H](c1ccccc1)N(C(=O)C1CCCO1)C2 (some centres unmarked)", "≤ 100 nM"],
  ["O=C(NO)c1ccc2c(c1)OC[C@@H](c1cccnc1)N(C(=O)C1CCOCC1)C2 (single isomer, unassigned)", "≤ 100 nM"],
  ["COC1(C(=O)N2Cc3ccc(C(=O)NO)cc3OC[C@@H]2c2ccccc2)CCCCC1", "≤ 100 nM"]
]}

-- ask Item "O=C(NO)c1ccc2c(c1)OC[C@H](c1ccccc1)N(C(=O)c1ccccn1)C2" with HDAC6 (Homo sapiens, UniProt Q9UBN7) - IC50?
-- reply ≤ 100 nM

-- ask Same question for "O=C(NO)c1ccc2c(c1)OC[C@H](c1ccccc1)N(C(=O)c1cccnc1)C2" please.
-- reply ≤ 100 nM

-- ask Same question for "COCC1(C(=O)N2Cc3ccc(C(=O)NO)cc3OC[C@@H]2c2ccccc2)CC1" please.
-- reply ≤ 100 nM

-- ask Same question for "CC(C)(C)C(=O)N1Cc2ccc(C(=O)NO)cc2OC[C@@H]1c1ccccc1" please.
-- reply ≤ 100 nM

-- ask Same question for O=C(NO)c1ccc2c(c1)OC[C@H](c1ccccc1)N(C(=O)[C@H]1CCOC1)C2 (single isomer, unassigned) please.
-- reply ≤ 100 nM

-- ask Same question for O=C(NO)c1ccc2c(c1)OC[C@@H](c1cccc(C(F)(F)F)c1)N(C(=O)C1CCOCC1)C2 (single isomer, unassigned) please.
-- reply 100 to 500 nM

-- ask Same question for O=C(NO)c1ccc2c(c1)OC[C@H](c1cccc(C(F)(F)F)c1)N(C(=O)C1CCOCC1)C2 (single isomer, unassigned) please.
-- reply ≤ 100 nM

-- ask Same question for "O=C(NO)c1ccc2c(c1)OC[C@H](c1ccc(F)cc1)N(C(=O)C1CCOCC1)C2" please.
-- reply ≤ 100 nM

----------
Parameter pIC50: see the listing below.
Molecular target: HDAC6 (Homo sapiens, UniProt Q9UBN7)
Construct: Full length human recombinant HDAC6 protein
Assay: In vitro histone deacetylase assay: enzymatic HDAC6 assay by electrophoretic mobility shift
Conditions: full length human recombinant HDAC6 1 nM, 2 μM peptide substrate RHKK(Ac)-NH2, 25° C., 12 concentrations; read-out: Inhibitory Concentration (IC50) against HDAC6, Activity Range
pIC50: −log10 of the molar value.

Examples from the recorded data:
{"columns": ["molecule", "system", "pIC50"],
 "data": [
  ["O=C(NO)c1ccc2c(c1)OC[C@@H](c1ccccc1F)N(C(=O)C1CCOCC1)C2", "HDAC6 (Homo sapiens, UniProt Q9UBN7)", "6.30 to 7.00"],
  ["O=C(NO)c1ccc2c(c1)OC[C@H](c1cccnc1)N(C(=O)C1CCOCC1)C2 (single isomer, unassigned)", "HDAC6 (Homo sapiens, UniProt Q9UBN7)", "6.30 to 7.00"],
  ["COC(C)(C)C(=O)N1Cc2ccc(C(=O)NO)cc2OC[C@@H]1c1ccccc1", "HDAC6 (Homo sapiens, UniProt Q9UBN7)", "≥ 7.00"],
  ["O=C(NO)c1ccc2c(c1)OC[C@@H](c1ccccc1)N(C(=O)C1CCOCC1)C2", "HDAC6 (Homo sapiens, UniProt Q9UBN7)", "< 6.30"],
  ["O=C(NO)c1ccc2c(c1)OC[C@H](c1ccccc1)N(C(=O)C1CCOCC1)C2", "HDAC6 (Homo sapiens, UniProt Q9UBN7)", "≥ 7.00"]
]}

-- ask Need pIC50, item "COC1(C(=O)N2Cc3ccc(C(=O)NO)cc3OC[C@@H]2c2ccccc2)CC1"
-- reply ≥ 7.00

-- ask Same question for "CC(=O)N1Cc2ccc(C(=O)NO)cc2OC[C@@H]1c1ccccc1" please.
-- reply ≥ 7.00

-- ask Same question for "O=C(NO)c1ccc2c(c1)OC[C@H](c1ccccc1)N(C(=O)C1CCC1)C2" please.
-- reply ≥ 7.00

-- ask Same question for O=C(NO)c1ccc2c(c1)OC[C@H](c1ccccc1C(F)(F)F)N(C(=O)C1CCOCC1)C2 (single isomer, unassigned) please.
-- reply ≥ 7.00

-- ask Same question for "O=C(NO)c1ccc2c(c1)OC[C@H](c1ccc(Cl)cc1)N(C(=O)C1CCOCC1)C2" please.
-- reply ≥ 7.00

-- ask Same question for "O=C(NO)c1ccc2c(c1)OC[C@H](c1ccccc1)N(C(=O)C1(F)CCOCC1)C2" please.
-- reply ≥ 7.00
